Data provenance is a melting point compilation (Tetko et al.; mined from patent text by program, amines drawn as free bases though some values may be those of a salt).

The entries below come with measured melting point values attached.

Examples with their reported melting point follow.
{"columns": ["compound", "melting point"],
 "data": [
  ["c1ccc2c(c1)c1ccccc1c1[nH]cnc21", "> 375 °C"],
  ["COc1cc2ncnc(N3CCN(C(=S)Nc4ccncc4)CC3)c2cc1OC", "218 to 220 °C"]
]}

Prompt line: // lookup melting point for CC(C)(C)OC(=O)N1CCC(c2noc3c(O)c(F)ccc23)CC1
Response line: 169 to 170 °C

Prompt line: Request: Cc1nc(-c2ccc(C(F)(F)F)cc2)oc1CSc1ccc(OCC(=O)O)cc1
Response line: 131 to 133 °C

Prompt line: Request: CC(=O)C1=C(C)NC(C)=C(C(=O)CCCCCCCN2CCC(c3ccccc3)(c3ccccc3)CC2)C1c1cccc([N+](=O)[O-])c1 (stereo unspecified)
Response line: 141 to 145 °C

Prompt line: Request: COc1ccc(-c2cccc3[nH]c4c(c23)CCN(Cc2ccccc2)CC4)c(C)c1
Response line: 177 to 178 °C

###

property-label: melting point

{"columns": ["given-smiles", "melting point"],
 "data": [
  ["O=C(Cl)CN1C(=O)C(Cl)=C(Cl)C1=O", "102 to 103 °C"],
  ["Cc1c(CN2CCc3c(c4ccccc4n3C)C2=O)ncn1S(=O)(=O)N(C)C", "194 to 196 °C"]
]}

We next turn to a different compound, shown below.
Prompt line: // lookup melting point for O=C(Nc1ccc(-n2nc(C(F)(F)F)cc2C(F)(F)F)cc1)c1cc(F)ccc1F
Response line: 168 to 169 °C

###

The entries below come with measured melting point values attached.

Examples with their reported melting point follow.
{"columns": ["molecule", "result"],
 "data": [
  ["CCOc1cc(OCC(=O)OCc2ccccc2)cc2c1C(=O)N(COC(=O)c1c(Cl)cccc1Cl)S2(=O)=O", "157 to 158 °C"],
  ["CNC(=O)c1cn(C)nc1[N+](=O)[O-]", "163 to 165 °C"],
  ["CC1CN(c2ncc(Br)cc2C=O)CC1C (stereo not given)", "98.5 to 99.5 °C"],
  ["Cc1c(/C=C/c2cccc([N+](=O)[O-])c2C)cccc1[N+](=O)[O-]", "246 °C"],
  ["COc1cc(NC(=O)c2cccc(CCc3cc(Nc4ccccc4)n[nH]3)c2)cc(OC)c1OC", "67 to 69 °C"],
  ["Cc1cc(Cl)ccc1OCc1ccccc1C(O)c1nccn1C (stereo not given)", "159 to 160 °C"],
  ["CCCCCCCCCC(=O)Oc1ccc([N+](=O)[O-])cc1OC(=O)CCCCCCCCC", "45 to 47 °C"],
  ["COc1ccc([C@@H]2O[C@H]2C(=O)O[C@@H]2CCCC[C@H]2c2ccccc2)cc1", "146 to 148 °C"]
]}

Prompt line: // lookup melting point for CNC1=NS(=O)(=O)N=C(Oc2ccccc2[N+](=O)[O-])N1C(C)C
Response line: 242 °C

Prompt line: Request: CC(=O)NC[C@H]1CN(c2ccc(-n3cccn3)c(F)c2)C(=O)O1
Response line: 183 to 184 °C

Prompt line: Request: CC(=O)Nc1onc(-c2ccccc2)c1Cl
Response line: 141 to 142 °C

Prompt line: Request: CC(=O)SCCC(=O)N1c2ccc(Cl)cc2CCC1C(=O)O (stereo not given)
Response line: 134 to 136 °C

Prompt line: Request: CSc1nnc2n1C=Cc1cc(C)ccc1C2
Response line: 161 to 162 °C

Prompt line: Request: OCc1cccc(-c2cccc(-c3cn([C@H]4CN5CCC4CC5)nn3)c2)c1
Response line: 201 °C

Prompt line: Request: Clc1ccc2c(c1)C(c1ccccc1Cl)NCc1cncnc1-2 (stereo not given)
Response line: 169 to 170 °C
